Data origin: patent US9056840B2

- MEASURED TARGET: apoaequorin (Aequorea victoria)
- Construct: purchased Chisso Corporation
- ASSAY TEXT: Fluorescence spectra of fluorescent proteins formed from semi-synthetic aequorins by Ca2+
- Assay type: physicochemical
- CONDITION SET: fluorescent protein generated by calcium from semi-synthetic aequorin; excitation 330 nm, 25° C.
Collected Maximum fluorescence wavelength λmax (nm) values appear next to each entry.

Example molecules with recorded Maximum fluorescence wavelength λmax (nm):
{"MOLECULE": "O=c1c(Cc2ccc(O)cc2)nc2c(-c3cccs3)[nH]c(-c3ccc(O)cc3)cn1-2 [Compound 3f]", "VALUE OBSERVED": "525.0 nm"}
{"MOLECULE": "Oc1ccc(Cc2nc3c(Cc4ccccc4)nc(-c4ccc(O)cc4)cn3c2O)cc1 [Coelenterazine]", "VALUE OBSERVED": "473.0 nm"}
{"MOLECULE": "O=c1c(Cc2ccc(O)cc2)nc2c(-c3cccc4ccccc34)[nH]c(-c3ccc(O)cc3)cn1-2 [Compound 3d]", "VALUE OBSERVED": "482.5 nm"}

Now consider the entry below.
Inquiry: Requested read-out: Maximum fluorescence wavelength λmax (nm). Entry: O=c1c(Cc2ccc(O)cc2)nc2c(-c3ccc4ccccc4c3)[nH]c(-c3ccc(O)cc3)cn1-2 [Compound 3e]
Reply text: 468.5 nm

###

- MEASURED TARGET: apoaequorin (Aequorea victoria, UniProt P07164)
- Construct: purchased Chisso Corporation
- Sequence (P07164 other isoform, or with tags, fused parts or gaps with the stated changes): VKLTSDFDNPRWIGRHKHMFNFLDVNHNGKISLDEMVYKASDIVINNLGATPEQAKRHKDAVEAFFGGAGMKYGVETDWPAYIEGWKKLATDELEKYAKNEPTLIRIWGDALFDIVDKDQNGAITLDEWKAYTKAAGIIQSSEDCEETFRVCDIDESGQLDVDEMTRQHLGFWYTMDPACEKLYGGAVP
- ASSAY TEXT: Fluorescence spectra of semi-synthetic BFP (coelenteramide analogue + apoaequorin, CaCl2)
- Format: physicochemical
- CONDITION SET: 10 mM CaCl2 buffer, excitation 337 nm
Record true whenever Semi-synthetic BFP (Buffer containing CaCl2) Maximum fluorescence wavelength λmax (nm) is at 500 nm or higher; record false when lower.

These recorded examples may help you get a feel for the data.
{"COMPOUND": "O=C(Cc1ccc(O)cc1)Nc1ncc(-c2ccc(O)cc2)nc1/C=C/c1ccccc1", "CATEGORY LABEL": "true"}
{"COMPOUND": "CC(C(=O)Nc1ncc(-c2ccc(O)cc2)nc1Cc1ccccc1)c1ccc(O)cc1 (stereo not shown)", "CATEGORY LABEL": "false"}

Inquiry: Record O=C(Cc1ccc(O)cc1)Nc1ncc(-c2ccc(O)cc2)nc1CCc1ccccc1 ; criterion: Semi-synthetic BFP (Buffer containing CaCl2) Maximum fluorescence wavelength λmax (nm) no lower than 500 nm. Met?
Reply text: false

###

Collected Fluorescence intensity values appear next to each entry.
- MEASURED TARGET: apoaequorin (Aequorea victoria, UniProt P07164)
- Construct: purchased Chisso Corporation
- ASSAY TEXT: Fluorescence spectra of semi-synthetic BFP (coelenteramide analogue + apoaequorin, CaCl2)
- Type: physicochemical
- CONDITION SET: 10 mM CaCl2 buffer, excitation 337 nm

Example compounds with recorded Fluorescence intensity:
{"SMILES CODE": "O=C(Cc1ccc(O)cc1)Nc1ncc(-c2ccc(O)cc2)nc1-c1cccc2ccccc12", "MEASURED TARGET": "apoaequorin (Aequorea victoria, UniProt P07164)", "VALUE OBSERVED": "98.3 rlu"}
{"SMILES CODE": "O=C(Cc1ccc(O)cc1)Nc1ncc(-c2ccc(O)cc2)nc1-c1cccs1", "MEASURED TARGET": "apoaequorin (Aequorea victoria, UniProt P07164)", "VALUE OBSERVED": "96.4 rlu"}
{"SMILES CODE": "O=C(Cc1ccc(O)cc1)Nc1ncc(-c2ccc(O)cc2)nc1CCc1ccccc1", "MEASURED TARGET": "apoaequorin (Aequorea victoria, UniProt P07164)", "VALUE OBSERVED": "159.9 rlu"}
{"SMILES CODE": "Oc1ccc(NC(=S)Nc2ncc(-c3ccc(O)cc3)nc2Cc2ccccc2)cc1", "MEASURED TARGET": "apoaequorin (Aequorea victoria, UniProt P07164)", "VALUE OBSERVED": "3.3 rlu"}
{"SMILES CODE": "O=C(Nc1ncc(-c2ccc(O)cc2)nc1Cc1ccccc1)c1ccc(O)cc1", "MEASURED TARGET": "apoaequorin (Aequorea victoria, UniProt P07164)", "VALUE OBSERVED": "36.8 rlu"}
{"SMILES CODE": "O=C(Cc1ccc(O)cc1)Nc1ncc(-c2ccc(O)cc2)nc1-c1ccccc1", "MEASURED TARGET": "apoaequorin (Aequorea victoria, UniProt P07164)", "VALUE OBSERVED": "148.9 rlu"}

Inquiry: Provide the documented Fluorescence intensity with apoaequorin (Aequorea victoria, UniProt P07164) as the system for O=C(Cc1ccc(O)cc1)Nc1ncc(-c2ccc(O)cc2)nc1C#Cc1ccccc1
Reply text: 70.0 rlu

Inquiry: Provide the documented Fluorescence intensity with apoaequorin (Aequorea victoria, UniProt P07164) as the system for O=C(Cc1ccc(O)cc1)Nc1cnc(-c2ccc(O)cc2)cn1
Reply text: 22.1 rlu
